# Test system: ACHN renal
# methodSummary: NCI tumour cell line growth inhibition, 48 h; in the data active = GI50 below about 0.43 µM; inactive = the rest
Result category, one only: active, inactive

Outcome? "C#CCN1CCN(C(=S)N/N=C(\C)c2ccccn2)CC1"
active

###

# Test system: CAKI-1 renal
# methodSummary: NCI tumour cell line growth inhibition, 48 h
In this section, each of the compounds is paired with its reported TGI.
Report the figure in µM without appending any unit label.

moleculeSmiles | assayValue
COc1cc2c3c(n(CCN)c(=O)c2cc1OC)-c1cc2c(cc1C3=O)OCO2 | 0.786
COc1ccc2cc(C(=O)/C=C/c3cccc(Cl)c3Cl)ccc2c1 | 80.6
Cc1cc(O)c2c(c1)C(=O)c1cc(O)cc(O)c1C2=O | 52.9

Fill blank: measured TGI of the compound "C=C(CNCCc1ccc(O)cc1)[C@@H]1CC[C@]2(CO)CC[C@]3(C)[C@H](CC[C@@H]4[C@@]5(C)CCC(=O)C(C)(C)[C@@H]5CC[C@]43C)[C@@H]12" is ____.
2.96

Quick one: "Cc1nc2c(nc1C)-c1c(c3c(n1Cc1ccccc1)C(=O)CCC3)C(=O)C2=O"
5.32
